System tested: UniProt Q06278
Sequence (Q06278 whole entry): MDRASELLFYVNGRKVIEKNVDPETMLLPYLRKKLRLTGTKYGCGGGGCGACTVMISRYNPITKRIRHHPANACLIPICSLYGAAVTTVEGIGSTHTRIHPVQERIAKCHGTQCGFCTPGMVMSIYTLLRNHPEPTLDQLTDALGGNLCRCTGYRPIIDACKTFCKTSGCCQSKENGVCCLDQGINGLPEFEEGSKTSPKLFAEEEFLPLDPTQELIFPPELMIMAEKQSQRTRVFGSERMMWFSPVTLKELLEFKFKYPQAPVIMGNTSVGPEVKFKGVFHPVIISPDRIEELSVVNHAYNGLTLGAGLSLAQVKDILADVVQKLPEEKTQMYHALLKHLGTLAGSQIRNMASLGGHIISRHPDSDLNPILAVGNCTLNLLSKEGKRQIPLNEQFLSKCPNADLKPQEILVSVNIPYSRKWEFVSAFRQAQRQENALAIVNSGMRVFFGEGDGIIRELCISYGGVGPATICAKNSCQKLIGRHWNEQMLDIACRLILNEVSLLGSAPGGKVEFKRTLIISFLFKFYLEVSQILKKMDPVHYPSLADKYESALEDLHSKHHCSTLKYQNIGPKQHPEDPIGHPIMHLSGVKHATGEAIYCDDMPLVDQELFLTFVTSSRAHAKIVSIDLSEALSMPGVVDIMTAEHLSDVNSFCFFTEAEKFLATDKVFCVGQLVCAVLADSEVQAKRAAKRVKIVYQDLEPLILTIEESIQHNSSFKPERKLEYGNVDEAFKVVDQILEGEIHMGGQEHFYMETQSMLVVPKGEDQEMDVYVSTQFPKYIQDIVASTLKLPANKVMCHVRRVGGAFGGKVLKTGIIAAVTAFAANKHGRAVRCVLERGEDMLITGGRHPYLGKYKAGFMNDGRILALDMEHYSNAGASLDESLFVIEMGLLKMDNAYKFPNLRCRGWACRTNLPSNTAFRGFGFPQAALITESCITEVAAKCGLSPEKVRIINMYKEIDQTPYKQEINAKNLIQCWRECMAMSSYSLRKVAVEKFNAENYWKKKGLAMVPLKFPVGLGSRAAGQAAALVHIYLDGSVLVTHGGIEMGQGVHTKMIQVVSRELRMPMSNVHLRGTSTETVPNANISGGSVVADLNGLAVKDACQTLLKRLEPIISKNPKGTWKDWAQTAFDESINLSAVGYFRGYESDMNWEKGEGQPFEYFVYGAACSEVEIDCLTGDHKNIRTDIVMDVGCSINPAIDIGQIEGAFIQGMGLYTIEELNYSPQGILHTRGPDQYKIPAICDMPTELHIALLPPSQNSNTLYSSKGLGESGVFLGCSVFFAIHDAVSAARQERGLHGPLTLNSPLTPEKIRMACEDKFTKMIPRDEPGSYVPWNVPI
Test method notes: Drug metabolism in human liver S9 fraction assessed as aldehyde oxidase-mediated drug metabolism by measuring rate of parent compound decay at 1 uM measured after 90 mins by LC-MS/MS analysis
Format: ADME, subcellular
Property measured: Drug metabolism

Request: Value lookup for Drug metabolism; key = Nc1ncnc2c1c(Oc1cc(C(F)(F)F)ccn1)nn2[C@@H]1CCCC[C@H]1O
Response: < 3.2 µL/min/mg

Request: Repeat for the following molecule: N#Cc1ccnc(Oc2nn([C@H]3C[C@H](F)C3)c3ncnc(N)c23)c1
Response: < 3.2 µL/min/mg

Request: Repeat for the following molecule: Nc1ncnc2c1c(Oc1cc(C(F)(F)F)ccn1)nn2C1CC1
Response: < 3.2 µL/min/mg

----------
Test method notes: Cytotoxicity against human CMEC/D3 cells assessed as cell growth at 20 uM measured after 72 hrs by cellTiter 96 AQueous non-radioactive cell proliferation assay relative to control
Format: cell-based, hCMEC/D3
Condition set: read-out: Activity
Property measured: viability at 72 h, 20 µM (%)
Output spec: scalar in %, unitless text.

Request: Value lookup for viability at 72 h, 20 µM; key = CO[C@@]12[C@H](COC(N)=O)C3=C(C(=O)C(C)=C(N)C3=O)N1C[C@@H]1N[C@@H]12
Response: 5

Request: Repeat for the following compound: N#Cc1ccnc(Oc2nn([C@H]3C[C@H](F)C3)c3ncnc(N)c23)c1
Response: 135

Request: Repeat for the following compound: Nc1ncnc2c1c(Oc1cc(C(F)(F)F)ccn1)nn2C1CC1
Response: 132

Request: Repeat for the following compound: Nc1ncnc2c1c(Oc1cc(C(F)(F)F)ccn1)nn2[C@@H]1CCCC[C@H]1O
Response: 126

----------
System tested: ALK5 (TGF-beta receptor type-1) (Homo sapiens)
Sequence (P36897 whole entry, the tested form may be a part): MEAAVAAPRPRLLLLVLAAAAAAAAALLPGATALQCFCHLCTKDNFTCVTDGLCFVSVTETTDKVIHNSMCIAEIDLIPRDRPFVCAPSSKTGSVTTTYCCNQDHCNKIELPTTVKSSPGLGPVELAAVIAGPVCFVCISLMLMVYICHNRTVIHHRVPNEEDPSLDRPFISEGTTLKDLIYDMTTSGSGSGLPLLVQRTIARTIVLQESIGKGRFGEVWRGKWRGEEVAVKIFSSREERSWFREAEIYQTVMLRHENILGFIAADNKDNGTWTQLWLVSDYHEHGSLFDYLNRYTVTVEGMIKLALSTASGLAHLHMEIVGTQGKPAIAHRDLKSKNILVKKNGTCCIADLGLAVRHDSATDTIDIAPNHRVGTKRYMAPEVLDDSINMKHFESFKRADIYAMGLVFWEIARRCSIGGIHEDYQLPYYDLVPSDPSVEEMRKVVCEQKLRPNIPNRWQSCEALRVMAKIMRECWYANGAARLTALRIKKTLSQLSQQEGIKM
Test method notes: Inhibition of human […] N-terminal GST-tagged ALK5 (200 to 503 residues) expressed in baculovirus expression system at 1 uM by Lanthascreen assay relative to control
Property measured: inhibition at 1 µM

Request: Value lookup for inhibition at 1 µM; key = Nc1ncnc2c1c(Oc1cc(C(F)(F)F)ccn1)nn2C1CC1
Response: > 50%

----------
System tested: Cytochrome P450 1A2 (Homo sapiens, UniProt P05177)
Sequence (P05177 whole entry): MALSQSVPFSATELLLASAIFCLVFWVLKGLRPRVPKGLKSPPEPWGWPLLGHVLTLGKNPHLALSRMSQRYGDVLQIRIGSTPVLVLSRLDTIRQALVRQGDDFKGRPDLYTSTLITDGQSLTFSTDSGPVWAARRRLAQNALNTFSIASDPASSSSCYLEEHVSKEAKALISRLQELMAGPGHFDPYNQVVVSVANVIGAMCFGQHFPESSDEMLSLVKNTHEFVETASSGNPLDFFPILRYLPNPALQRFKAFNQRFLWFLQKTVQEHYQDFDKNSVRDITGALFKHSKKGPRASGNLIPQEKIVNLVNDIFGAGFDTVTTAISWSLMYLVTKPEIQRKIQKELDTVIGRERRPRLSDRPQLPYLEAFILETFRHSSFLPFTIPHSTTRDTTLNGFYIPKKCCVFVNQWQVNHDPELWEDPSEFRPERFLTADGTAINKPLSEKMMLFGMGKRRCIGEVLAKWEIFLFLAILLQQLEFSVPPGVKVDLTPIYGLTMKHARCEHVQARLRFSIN
Test method notes: Inhibition of CYP1A2 in human liver microsomes using phenacetin as substrate measured after 10 mins by LC-MS/MS analysis
Property measured: EC50
Write your answer as a measured quantity: the number, then the unit.

Request: Value lookup for EC50; key = N#Cc1ccnc(Oc2nn([C@H]3C[C@H](F)C3)c3ncnc(N)c23)c1
Response: 20.8 µM

Request: Repeat for the following molecule: Nc1ncnc2c1c(Oc1cc(C(F)(F)F)ccn1)nn2C1CC1
Response: 0.46 µM

----------
I'd be grateful if you could share measured viability at 72 h, 20 µM for these entries.
Test method notes: Cytotoxicity against human Caco2 cells assessed as cell growth at 20 uM measured after 72 hrs by cellTiter 96 AQueous non-radioactive cell proliferation assay relative to control
Assay type: cell-based, Caco-2
Condition set: read-out: Activity
Output spec: scalar in %, unitless text.

Request: Value lookup for viability at 72 h, 20 µM; key = N#Cc1ccnc(Oc2nn([C@H]3C[C@H](F)C3)c3ncnc(N)c23)c1
Response: 95.5

Request: Repeat for the following molecule: Nc1ncnc2c1c(Oc1cc(C(F)(F)F)ccn1)nn2[C@@H]1CCCC[C@H]1O
Response: 100

Request: Repeat for the following molecule: Nc1ncnc2c1c(Oc1cc(C(F)(F)F)ccn1)nn2C1CC1
Response: 93.3

----------
System tested: PTK6 (Homo sapiens, UniProt Q13882)
Sequence (Q13882 whole entry, the tested form may be a part): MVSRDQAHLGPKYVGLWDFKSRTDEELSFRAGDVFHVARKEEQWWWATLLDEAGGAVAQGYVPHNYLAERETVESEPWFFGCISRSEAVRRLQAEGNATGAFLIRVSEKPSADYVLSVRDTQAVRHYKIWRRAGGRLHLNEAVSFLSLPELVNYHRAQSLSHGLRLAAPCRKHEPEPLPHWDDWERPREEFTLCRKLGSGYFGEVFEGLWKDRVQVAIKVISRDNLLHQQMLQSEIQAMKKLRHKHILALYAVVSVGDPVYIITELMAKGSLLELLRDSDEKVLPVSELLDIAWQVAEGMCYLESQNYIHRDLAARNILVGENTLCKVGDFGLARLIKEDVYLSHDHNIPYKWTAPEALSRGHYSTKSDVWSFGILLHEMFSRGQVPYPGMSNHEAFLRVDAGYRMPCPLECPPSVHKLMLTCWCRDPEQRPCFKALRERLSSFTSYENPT
Test method notes: Inhibition of recombinant human full-length His-tagged PTK6 cytoplasmic domain expressed in baculovirus expression system at 1 uM using Fluorescein-Poly GT as substrate by Lanthascreen assay relative to control
Condition set: probe Fluorescein-Poly GT
Property measured: inhibition at 1 µM

Request: Value lookup for inhibition at 1 µM; key = N#Cc1ccnc(Oc2nn([C@H]3C[C@H](F)C3)c3ncnc(N)c23)c1
Response: > 50%

Request: Repeat for the following compound: Nc1ncnc2c1c(Oc1cc(C(F)(F)F)ccn1)nn2C1CC1
Response: > 50%

----------
Test method notes: Clearance in human hepatocytes assessed per million cells at 1 uM by LC-MS/MS analysis
Format: ADME, cell-based, Hepatocyte
Property measured: CLH

Request: Value lookup for CLH; key = N#Cc1ccnc(Oc2nn([C@H]3C[C@H](F)C3)c3ncnc(N)c23)c1
Response: 10 µL/min/1e6 cells

Request: Repeat for the following compound: Nc1ncnc2c1c(Oc1cc(C(F)(F)F)ccn1)nn2C1CC1
Response: < 6.4 µL/min/1e6 cells

Request: Repeat for the following compound: Nc1ncnc2c1c(Oc1cc(C(F)(F)F)ccn1)nn2[C@@H]1CCCC[C@H]1O
Response: < 6.4 µL/min/1e6 cells

----------
Test method notes: Half life in human liver microsomes at 10 uM preincubated for 10 mins followed by NADPH addition by LC-MS/MS analysis
Format: ADME, Microsome
Condition set: microsomes, 10 µM
Label yes when t1/2 is at or above 1 h; anything below gets no.

Request: # check: t1/2 of Nc1ncnc2c1c(Oc1cccc(C(F)(F)F)c1)nn2[C@H]1C[C@H](O)C1 is greater than or equal to 1 h
Response: yes

Request: Repeat for the following compound: Nc1ncnc2c1c(Oc1cc(Cl)ccn1)nn2[C@H]1C[C@H](F)C1
Response: no

Request: Repeat for the following compound: Nc1ncnc2c1c(Oc1cc(Cl)ccn1)nn2CC1CC1
Response: no

Request: Repeat for the following compound: Nc1ncnc2c1c(Oc1cc(C(F)(F)F)ccn1)nn2[C@H]1C[C@H](F)C1
Response: yes

Request: Repeat for the following compound: N#Cc1ccnc(Oc2nn(C3CCC3)c3ncnc(N)c23)c1
Response: yes

Request: Repeat for the following compound: CO[C@H]1CC[C@@H](n2nc(Oc3cc(C(F)(F)F)ccn3)c3c(N)ncnc32)CC1
Response: no

Request: Repeat for the following compound: CC(C)(C)n1nc(Oc2cc(C(F)(F)F)ccn2)c2c(N)ncnc21
Response: no

Request: Repeat for the following compound: Nc1ncnc2c1c(Oc1cc(C(F)(F)F)ccn1)nn2[C@H]1CC[C@@H](CO)CC1
Response: yes

Request: Repeat for the following compound: Nc1ncnc2c1c(Oc1cc(O)ccn1)nn2[C@H]1C[C@H](F)C1
Response: yes

Value source: ChEMBL document CHEMBL4602732
